The origin of these recorded values is patent US5998427A.

Biological target: human type 2 5α-reductase (Homo sapiens)
Construct: prostate tissue of BPH patients is printed as an alternative
Sequence (P31213 1-254): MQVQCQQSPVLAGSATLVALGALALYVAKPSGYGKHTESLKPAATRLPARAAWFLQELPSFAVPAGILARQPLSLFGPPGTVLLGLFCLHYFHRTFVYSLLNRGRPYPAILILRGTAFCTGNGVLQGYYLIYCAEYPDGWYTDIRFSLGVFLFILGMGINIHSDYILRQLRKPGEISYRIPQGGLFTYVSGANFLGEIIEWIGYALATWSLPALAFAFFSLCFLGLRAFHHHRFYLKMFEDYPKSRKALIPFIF
Assay: Inhibition of human type 2 5α-reductase (conversion of testosterone to DHT, microsomes)
Conditions: pH 6.0, 8 nM testosterone, 20 min preincubation, 20-40 min; read-out: IC50 Human Type 2 5AR
ENDPOINT_NAME: IC50

>>> result("CC(C)(C)c1ccc(C(F)(F)F)cc1NC(=O)[C@H]1CC[C@H]2[C@@H]3CC[C@H]4NC(=O)C=C[C@]4(C)[C@H]3CC[C@]12C")
"1 to 10 nM"
